Kindly supply the reported max response values for the records listed here.
Tested on: HaCat
Test: Cytotoxic Profiling of Annotated Libraries Using Quantitative High-Throughput Screening (AID 1296008); note: % is set by controls: 0 for no effect and ±100 for the full control effect; nearly all actives have a fitted effect of over 60% in size
Details: Five cell lines viability, CellTiter-Glo ATP luminescence, 48-72 h; hits give low values
Records with an inconclusive call do not appear.
Numbers only, in %.

// known answers, use as guide
• CC(C)(C(=O)NCC(F)(F)C(F)(F)F)C(=O)N[C@@H]1C(=O)Nc2ccccc2-c2ccccc21 = -2.21
• OC[C@H]1O[C@@H](Oc2cc(O)cc(C=Cc3ccc(O)cc3)c2)[C@H](O)[C@@H](O)[C@H]1O = -6.02
• Cc1ccc(/C=N/NC(=O)c2ccccc2Oc2ccccc2)o1 = -2.81

Go through the list and state max response for each entry.
1. CC(=O)Oc1cc2c(s1)CCN(C(C(=O)C1CC1)c1ccccc1F)C2 (stereo not given)
2. O=C1C[C@@H](c2ccc(O)cc2)Oc2cc(O)cc(O)c21
3. COc1cc(O)c2c(c1)C(=O)c1cc(C)cc(O)c1C2=O
4. CCN(CC)CCOc1ccc(C(=C(Cl)c2ccccc2)c2ccccc2)cc1
5. O=c1c(O)c(-c2ccc(O)cc2)oc2cc(O)cc(O)c12
6. CN1[C@@H]2CCC[C@@H]1CC(NC(=O)c1nn(C)c3ccccc13)C2 (stereo not given in full)
7. NC(=O)[C@@H](CCC(F)(F)F)N(Cc1ccc(-c2ncon2)cc1F)S(=O)(=O)c1ccc(Cl)cc1

[out]
[0.622, 2.46, -5.67, -8.22, -4.55, -5.72, -0.733]

###

Assay: Quantitative High-Throughput drug screen in 47 multiple myeloma cell lines against the NCATS MIPE library collection: JIM3_ECACC cell viability assay (AID 1918963; note: nearly all actives have a fitted effect of over 35% in size)
Conditions: JIM3 myeloma viability, CellTiter-Glo ATP, 48 h; series mostly up to 45.8 µM
Records with an inconclusive call do not appear. Calls of active or inactive are those of the source. The call rests on the fitted dose curve; in most records, active means well fitted cell-killing curve with a large enough effect; inconclusive means small, poorly fitted or top-dose-only effect; inactive means no such curve, though single readings can be large or run the other way.
Result category, one only: TRUE for active, FALSE for inactive

* Oc1ccc(C2CCN(c3ccnc4ccccc34)CC2)cc1O | TRUE

[in] Status in this test for CC[C@@H]1C=C(C)C[C@H](C)C[C@H](OC)[C@H]2O[C@@](O)(C(=O)C(=O)N3CCCC[C@@H]3C(=O)O[C@H](C(C)=C[C@@H]3CC[C@H](Cl)[C@H](OC)C3)[C@H](C)[C@@H](O)CC1=O)[C@H](C)C[C@H]2OC ?
[out] TRUE

[in] Status in this test for CC(=O)Nc1ccc([C@H](C)C(=O)Nc2ncc(C(C)C)s2)cc1 ?
[out] TRUE

[in] Status in this test for CN(C)Cc1cccc(N=C(c2ccccc2)c2c(O)[nH]c3cc(C(=O)N(C)C)ccc23)c1 ?
[out] TRUE

[in] Status in this test for Cc1c(O)cccc1C(=O)N[C@@H](CSc1ccccc1)[C@H](O)CN1C[C@H]2CCCC[C@@H]2C[C@@H]1C(=O)NC(C)(C)C ?
[out] TRUE

[in] Status in this test for CC=C(C)C(=O)O[C@H]1C(C)=C[C@]23C(=O)[C@@H](C=C(CO)[C@@H](O)[C@]12O)[C@H]1[C@@H](C[C@H]3C)C1(C)C ?
[out] TRUE

[in] Status in this test for CC(C)n1cnc2c(NCCCCCCNC(=O)OC(C)(C)C)nc(NCCO)nc21 ?
[out] TRUE

[in] Status in this test for CC(C)C[C@H](CC(=O)O)C(=O)N[C@@H](Cc1c[nH]c2ccccc12)C(=O)N[C@@H](C)c1ccccc1 ?
[out] FALSE
